System: Radical scavenging activity
Assay: Antioxidant activity assessed as DPPH free radical scavenging activity at 10 uM by spectrophotometric analysis
Type: functional
Answer each item with its documented Activity.
Answers are plain numbers, in %.

Field: example entries. Status: answers known.
1. COc1ccc(/C=C/C(=O)c2c(OC)cc(OC)c(Br)c2O)c(OC)c1    20.2
2. COc1cc(OC)c(C(=O)/C=C/c2cccnc2)c(O)c1Br    21.1
3. COc1ccc(/C=C/C(=O)c2c(OC)cc(OC)c(Br)c2O)cc1    38.4

I would be grateful if you could provide Activity for each of the following entries.
1. COc1cc(OC)c(C(=O)/C=C/c2cccc([N+](=O)[O-])c2)c(O)c1Br
2. COc1cc(OC)c(C(=O)/C=C/c2ccc(Cl)cc2)c(O)c1Br
3. COc1cc(OC)c(C(=O)/C=C/c2cc[nH]c2)c(O)c1Br

Result:
23.7
18.4
26.7

This collection of values is drawn from ChEMBL document CHEMBL3044881.
